# ASSAYED SYSTEM: T1, rhIL-17A (human, UniProt Q16552 24-155)
# T1 sequence: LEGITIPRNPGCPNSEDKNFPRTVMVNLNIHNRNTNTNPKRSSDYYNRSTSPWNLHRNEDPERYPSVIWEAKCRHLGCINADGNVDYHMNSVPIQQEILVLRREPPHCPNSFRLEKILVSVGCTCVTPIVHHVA
# ASSAY COMMENT: cell-based or functional assay
// values below are reported IC50, synoviocyte IL-8 production, rhIL-17A (30 ng/ml)
EXPERIMENTAL ENDPOINT: IC50, synoviocyte IL-8 production, rhIL-17A (30 ng/ml)

>>> endpoint_value("hu 16C10 VH M100hF (antibody, human IgG1, V domains shown, Variant of hu 16C10 wt; Human IgG1/kappa; also called hu16C10 (M100hF)) VH: QVQLQESGPGLVKPSETLSLTCTVSGFSLPSHSVSWIRQPPGKGLEWIGIIWNNGGTDYNSAFKSRVTISVDTSKNQFSLKLSSVTAADTAVYYCARNMYITDYYYENYFFDAWGQGTLVTVSS VL: DIVMTQSPLSLPVTPGEPASISCKSSQSLLFSENQKNYLAWYLQKPGQSPQLLIYWTSTRQSGVPDRFSGSGSGTDFTLKISRVEAEDVGVYYCQQSYYTPYTFGQGTKVEIKR")
"0.05 µg/mL"
>>> endpoint_value("hu 16C10 VH N54Q/M96A/M100hF (antibody, human IgG1, kappa, V domains shown, Human IgG1/kappa; also called hu 16C10 VH 54Q/M96A/M100hF; hu16C10 (N54Q/M96A/M100hF)) VH: QVQLQESGPGLVKPSETLSLTCTVSGFSLPSHSVSWIRQPPGKGLEWIGIIWNQGGTDYNSAFKSRVTISVDTSKNQFSLKLSSVTAADTAVYYCARNAYITDYYYENYFFDAWGQGTLVTVSS VL: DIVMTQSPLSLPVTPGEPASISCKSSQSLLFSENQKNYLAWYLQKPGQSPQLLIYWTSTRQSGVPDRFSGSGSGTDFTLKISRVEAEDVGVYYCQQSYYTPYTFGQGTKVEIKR")
"0.04 µg/mL"
>>> endpoint_value("humanized 16C10 wt (antibody, human IgG1, kappa, V domains shown, Humanized antibody with the parental rat CDRs; Human IgG1/kappa; also called hu 16C10 wt; hu16C10 (wt)) VH: QVQLQESGPGLVKPSETLSLTCTVSGFSLPSHSVSWIRQPPGKGLEWIGIIWNNGGTDYNSAFKSRVTISVDTSKNQFSLKLSSVTAADTAVYYCARNMYITDYYYENYFMDAWGQGTLVTVSS VL: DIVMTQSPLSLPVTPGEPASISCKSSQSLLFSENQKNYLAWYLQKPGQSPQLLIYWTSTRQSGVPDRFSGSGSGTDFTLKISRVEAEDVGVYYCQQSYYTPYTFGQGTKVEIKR")
"0.042 µg/mL"
>>> endpoint_value("hu 16C10 VH N54A (antibody, human IgG1, V domains shown, Variant of hu 16C10 wt; Human IgG1/kappa; also called hu16C10 (N54A)) VH: QVQLQESGPGLVKPSETLSLTCTVSGFSLPSHSVSWIRQPPGKGLEWIGIIWNAGGTDYNSAFKSRVTISVDTSKNQFSLKLSSVTAADTAVYYCARNMYITDYYYENYFMDAWGQGTLVTVSS VL: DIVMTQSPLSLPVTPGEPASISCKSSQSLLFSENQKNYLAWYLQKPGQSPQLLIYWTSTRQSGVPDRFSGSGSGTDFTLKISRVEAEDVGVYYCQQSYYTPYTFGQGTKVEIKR")
"0.025 µg/mL"

Each recorded value in this set is attributed to patent US20090175881A1.
